// values below are reported viability
# EXPERIMENT: reversal of MRP1-mediated doxorubicin resistance, pilot screen, H69AR cells, doxorubicin co-treatment (AID 601)
# CONDITION: H69AR cells, CellTiter-Glo, 72 h; compound alone cytotoxicity; at 10 µM
Field: numeric (%). Do not append units.

Here's what some known entries look like.
MOLECULE | VAL
CCOP(=O)(c1ccc(N(C)C)cc1)C(O)c1c(Cl)cccc1Cl (stereo not given) | 90.1
CCOC(=O)c1ccc(NS(=O)C23CC4CC(CC(C4)C2)C3)cc1 (stereo not given) | 87.6
N#CC(C(=O)CCN1C(=O)C2CC=CCC2C1=O)c1nc2ccccc2[nH]1 (stereo not given) | 91.1
CCOc1ccc(NS(=O)(=O)c2ccc(OCC(=O)N3CCCC3)cc2)cc1 | 88.7

Now examine the next entry.
Input line: Data request, read-out viability, for Cc1cc(=O)oc2c(CN3CCN(C)CC3)c(O)c(Cl)cc12
Output line: 90.7

Value source: PubChem BioAssay
